measured on: RSV protein F (recombinant or purified F protein) (human respiratory syncytial virus, …)
experimental details: SPR Biacore 3000, Fab over amine-coupled recombinant protein F

binder: Fab fragment of antibody 819 (Fab, V domains shown) VH: QVQLQESGPGLVKPSQTLSLTCTVSSGAISGADYYWSWIRQPPGKGLEWVGFIYDSGSTYYNPSLRSRVTISIDTSKKQFSLKLTSVTAADTAVYYCARDLGYGGNSYSHSYYYGLDVWGRGTTVTVSS VL: EIVLTQSPATLSLSPGERATLSCRASQSVSSSLAWYQQTPGQAPRLLIYDASYRVTGIPARFSGSGSGIDFTLTISSLEPEDFAVYYCQQRSNWPPGLTFGGGTKVEIKR
t1/2: 3.83 h

binder: Fab fragment of antibody 831 (Fab, V domains shown, also called Fab clone 831) VH: QVQLVQSGAEVKKPGASVKVSCKASANIFTYAMHWVRQAPGQRLEWMGWINVGNGQTKYSQRFQGRVTITRDTSATTAYMELSTLRSEDTAVYYCARRASQYGEVYGNYFDYWGQGTLVTVSS VL: DIQMTQSPSTLSASVGDRLTITCRASQNIYNWLAWYQQKPGKAPKLLIYDASTLESGVPSRFSGSGSGTEFTLTISSLQPDDFATYYCQQYNSLSPTFGQGTKVEIKR
t1/2: 0.467 h

binder: Fab fragment of antibody 818 (Fab, V domains shown) VH: QVTLRESGPAVVKPTETLTLTCAFSGFSLNAGRVGVSWIRQPPGQAPEWLARIDWDDDKAFRTSLKTRLSISKDSSKNQVVLTLSNMDPADTATYYCARTQVFASGGYYLYYLDHWGQGTLVTVSS VL: DIQMTQSPSSLSASVGDRVTITCRASQTIASYVNWYQQKPGRAPSLLIYAASNLQSGVPPRFSGSGSGTDFTLTISGLQPDDFATYYCQQSYSYRALTFGGGTKVEIKR
t1/2: 8.83 h

binder: Fab fragment of antibody 810 (Fab, V domains shown, also called Fab clone 810) VH: QVQLVQSGAEVKKSGSSVKVSCRASGGTFGNYAINWVRQAPGQGLEWVGRIIPVFDTTNYAQKFQGRVTITADRSTNTAIMQLSSLRPQDTAMYYCLRGSTRGWDTDGFDIWGQGTMVTVSS VL: NIQMTQSPSAMSASVGDRVTITCRASQGISNYLVWFQQKPGKVPKRLIYAASSLQSGVPSRFSGSGSGTEFTLTISSLQPEDFATYYCLQHNISPYTFGQGTKLETKR
t1/2: 0.55 h
